Cited source: patent US7678549B2

target: tumor cell-secreted nucleoside diphosphate kinase-B (NDPK-B, Nm23-H2) (Homo sapiens, UniProt P22392); construct: Partially purified tumor cell-secreted nucleoside diphosphate kinase-B was incubated with ADP and GTP; endogenous in cells; host or cells: human tumor cell lines MDA-MB-435s, Calu-1, WiDr and PC-3; concentrated conditioned Krebs buffer; assay: NDPK-B kinase activity assay (ADP to ATP with GTP as phosphoryl donor, luciferin-luciferase); type: biochemical; details: summary of Table 1
Sequence (P22392 whole entry): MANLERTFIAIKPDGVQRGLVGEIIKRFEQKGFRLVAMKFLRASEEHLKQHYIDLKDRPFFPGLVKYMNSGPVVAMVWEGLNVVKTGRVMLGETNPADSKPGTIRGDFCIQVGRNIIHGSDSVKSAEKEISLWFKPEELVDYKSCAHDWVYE
readoutLabel: inhibition of nucleoside diphosphate kinase-B activity (in words)

Entry under test: Nc1ncnc2c1ncn2[C@@H]1O[C@H](COP(=O)(O)OS(=O)(=O)O)[C@@H](OP(=O)(O)O)[C@H]1O . Its inhibition of nucleoside diphosphate kinase-B activity (in words) was relatively low potency

Entry under test: O=C(O[C@@H]1Cc2c(O)cc(O)cc2O[C@@H]1c1cc(O)c(O)c(O)c1)c1cc(O)c(O)c(O)c1 [EGCG, epigallocatechin gallate] . Its inhibition of nucleoside diphosphate kinase-B activity (in words) was inhibited

Entry under test: Nc1ncnc2c1nc(Cl)n2[C@@H]1O[C@@H]2COP(=O)(O)O[C@H]2[C@H]1O . Its inhibition of nucleoside diphosphate kinase-B activity (in words) was relatively low potency

Entry under test: Oc1cc(O)c2c(c1)O[C@H](c1cc(O)c(O)c(O)c1)[C@H](O)C2 [EGC, epigallocatechin] . Its inhibition of nucleoside diphosphate kinase-B activity (in words) was inhibited
